- System: TK-10
- assayRemarks: Growth inhibition of human TK10 cells after 48 hrs by sulforhodamine B assay
- Format: functional
- experimentalSetup: TK-10, 48 h
Give measured GI50 for each item. Keep answers brief.
Express it in µM; write the number only.

-- ask So what's the measured GI50 for this one? C[C@H]1[C@@H](OCC(=O)CO[C@H]2O[C@@H]3O[C@@]4(C)CC[C@H]5[C@H](C)CC[C@@H]([C@H]2C)[C@@]35OO4)O[C@@H]2O[C@@]3(C)CC[C@H]4[C@H](C)CC[C@@H]1[C@@]24OO3
-- reply 0.278

-- ask So what's the measured GI50 for this one? C[C@H]1[C@@H](O[C@@H](C)CO[C@H]2O[C@@H]3O[C@@]4(C)CC[C@H]5[C@H](C)CC[C@@H]([C@H]2C)[C@@]35OO4)O[C@@H]2O[C@@]3(C)CC[C@H]4[C@H](C)CC[C@@H]1[C@@]24OO3
-- reply 17.9
